// data source = ChEMBL document CHEMBL1177717

Listed next: entries and their corresponding Ki.
- target_or_test_system: Beta-lactamase L1 (Stenotrophomonas maltophilia, UniProt P52700)
- Sequence (P52700 whole entry): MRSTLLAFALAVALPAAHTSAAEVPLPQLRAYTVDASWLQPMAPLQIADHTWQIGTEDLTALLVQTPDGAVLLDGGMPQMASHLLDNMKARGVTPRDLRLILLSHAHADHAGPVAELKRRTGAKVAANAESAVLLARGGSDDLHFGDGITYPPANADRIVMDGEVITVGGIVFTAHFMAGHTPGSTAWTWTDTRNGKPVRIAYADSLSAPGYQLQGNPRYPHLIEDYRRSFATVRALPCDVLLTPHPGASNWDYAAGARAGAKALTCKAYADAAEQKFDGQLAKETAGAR
- assay_name: Inhibition of Stenotrophomonas maltophilia beta lactamase L1 in presence of Zn+ chelator
measure_name: Ki (µM)

| compound | target_or_test_system | measure_name | unit_text | operator_symbol | recorded_value |
| --- | --- | --- | --- | --- | --- |
| O=P(O)(O)C(S)c1ccc(Br)cc1 (stereo not given) | Beta-lactamase L1 (Stenotrophomonas maltophilia, UniProt P52700) | Ki | µM | = | 1.7 |
| O=P(O)(O)c1ccccc1CS | Beta-lactamase L1 (Stenotrophomonas maltophilia, UniProt P52700) | Ki | µM | > | 50 |
| CCC(S)P(=O)(OC(C)C)OC(C)C (stereo not given) | Beta-lactamase L1 (Stenotrophomonas maltophilia, UniProt P52700) | Ki | µM | > | 40 |
| CCC(S)P(=O)(O)O (stereo not given) | Beta-lactamase L1 (Stenotrophomonas maltophilia, UniProt P52700) | Ki | µM | > | 40 |
| O=P(O)(O)c1ccccc1S | Beta-lactamase L1 (Stenotrophomonas maltophilia, UniProt P52700) | Ki | µM | = | 12 |
| O=P(O)(O)C(S)c1ccc(Cl)cc1Cl (stereo not given) | Beta-lactamase L1 (Stenotrophomonas maltophilia, UniProt P52700) | Ki | µM | = | 0.4 |
| COc1ccccc1C(S)P(=O)(O)O (stereo not given) | Beta-lactamase L1 (Stenotrophomonas maltophilia, UniProt P52700) | Ki | µM | = | 4 |
| O=P(O)(O)C(S)c1ccc(Cl)cc1 (stereo not given) | Beta-lactamase L1 (Stenotrophomonas maltophilia, UniProt P52700) | Ki | µM | = | 0.7 |
| CC(C)OP(=O)(OC(C)C)c1ccccc1S | Beta-lactamase L1 (Stenotrophomonas maltophilia, UniProt P52700) | Ki | µM | > | 250 |
| CC(C)OP(=O)(OC(C)C)c1ccccc1CS | Beta-lactamase L1 (Stenotrophomonas maltophilia, UniProt P52700) | Ki | µM | = | 14 |

* * *

- target_or_test_system: Beta-lactamase L1 (Stenotrophomonas maltophilia, UniProt P52700)
- assay_name: Inhibition of Stenotrophomonas maltophilia beta lactamase L1 in absence of Zn+ chelator
Listed next: entries and their corresponding Ki.

| compound | Ki |
| --- | --- |
| CCC(S)P(=O)(O)O (stereo not given) | > 80 µM |
| O=P(O)(O)C(S)c1ccccc1 (stereo not given) | > 100 µM |
| CC(C)OP(=O)(OC(C)C)c1ccccc1S | > 250 µM |
| CCC(S)P(=O)(OC(C)C)OC(C)C (stereo not given) | > 40 µM |
| O=P(O)(O)C(S)c1ccc(F)cc1 (stereo not given) | > 20 µM |
